Biological target: PDE 4
Assay: Inhibition of PDE 4 compared with rolipram, enzyme preparation obtained from the line U937
Type: biochemical, human
Conditions: ratio to rolipram on the same enzymatic preparation; PDE 4 from U937 line; inhibitor 0.1 to 100 μM
Where a name gives a salt, the structure may show the parent alone.
Property label: IC50 rolipram / IC50 example
Give bare numbers.

Some compounds with recorded IC50 rolipram / IC50 example:
CC(C)(C)OC(=O)Nc1cnccc1C(=O)N[C@@H]1N=C(c2ccccc2)c2cc(N)cc3c2N(CC3)C1=O : 1.6
Nc1cc2c3c(c1)C(c1ccccc1)=N[C@@H](NC(=O)c1cc4ccccc4o1)C(=O)N3CC2 : 15.0
Nc1cc2c3c(c1)C(c1ccccc1)=N[C@@H](NC(=O)c1ccncc1)C(=O)N3CC2 [Example 12] : 2.0
CN(C)c1cc2c3c(c1)C(c1ccccc1)=N[C@@H](NC(=O)c1cc(Cl)c(N)c(Cl)c1)C(=O)N3CC2 : 3.3
Nc1cc2c3c(c1)C(c1ccccc1)=N[C@@H](NC(=O)c1ccncc1)C(=O)N3CC2 [12A (salt)] : 5.7

Would you mind giving IC50 rolipram / IC50 example for every compound in the list below?
1. O=C(N[C@@H]1N=C(c2ccccc2)c2cc(O)cc3c2N(CC3)C1=O)c1cc2ccccc2cn1
2. Nc1cc2c3c(c1)C(c1ccccc1)=N[C@@H](NC(=O)c1cnc4ccccc4c1)C(=O)N3CC2
3. Cc1cc2nnc(C(=O)N[C@@H]3N=C(c4ccccc4)c4cc(N)cc5c4N(CC5)C3=O)c(C)n2n1
4. COc1cc(N)c(Cl)cc1C(=O)N[C@@H]1N=C(c2ccccc2)c2cc(N)cc3c2N(CC3)C1=O
5. Nc1cc2c3c(c1)C(c1ccccc1)=N[C@@H](NC(=O)c1cc(Cl)c(N)c(Cl)c1)C(=O)N3CC2
6. Cc1cc2nnc(C(=O)N[C@@H]3N=C(c4ccccc4)c4cc(N5CCCC5)cc5c4N(CC5)C3=O)c(C)n2n1

1.9
1.4
1.1
3.4
33.0
4.0

Return reported IC50 rolipram / IC50 example; argument: Nc1cc2c3c(c1)C(c1ccccc1)=N[C@@H](NC(=O)c1cc4ccccc4cn1)C(=O)N3CC2
11.0
